Where do the numbers come from? From PubChem BioAssay AID1918952.

Test system: LG0703-F948-PDC complex spheroid viability
PROTOCOL: Anticancer human tumor LG0703-F948-PDC patient-derived lung adenocarcinoma cell line growth inhibition; active means viability on the fitted dose curve at most 10% of control; inactive means the rest
MEASUREMENT PARAMETERS: second compound 3.16 µM; first compound 0.0316 µM
Outcome codes: active, inactive

COMPOUND	CLASS NAME
CC1(C)CCC(CN2CCN(c3ccc(C(=O)NS(=O)(=O)c4ccc(NCC5CCOCC5)c([N+](=O)[O-])c4)c(Oc4cnc5[nH]ccc5c4)c3)CC2)=C(c2ccc(Cl)cc2)C1 + NC1CCC(NC2CC2c2ccccc2)CC1	inactive
CC(C)CC(NC(=O)CNC(=O)c1cc(Cl)ccc1Cl)B1OC(=O)CC(CC(=O)O)(C(=O)O)O1 (centres undefined) + NC1CC1c1ccc(-c2cccc(O)c2)cc1	active
O=C(c1cc(Cc2n[nH]c(=O)c3ccccc23)ccc1F)N1CCN(C(=O)C2CC2)CC1 + NC1CCC(NC2CC2c2ccccc2)CC1	inactive
O=C(c1cc(Cc2n[nH]c(=O)c3ccccc23)ccc1F)N1CCN(C(=O)C2CC2)CC1 + NC1CC1c1ccc(-c2cccc(O)c2)cc1	inactive

* * *

Test system: LG0703-F948-PDC complex spheroid viability
PROTOCOL: Anticancer human tumor LG0703-F948-PDC cell line growth inhibition;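 further: spheroids exposed to agents for seven days before readout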;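 on viability, T/C: 100% = DMSO vehicle control wells as normalization base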
MEASUREMENT PARAMETERS: second compound 0.316 µM; first compound 0.00949 µM; stronger effect = lower value

COMPOUND	viability, T/C / %
COc1cc(C2c3cc4c(cc3C(OC3OC5COC(C)OC5C(O)C3O)C3COC(=O)C23)OCO4)cc(OC)c1O (centres undefined) + NC1CCC(NC2CC2c2ccccc2)CC1	106
CCc1c2c(nc3ccc(O)cc13)-c1cc3c(c(=O)n1C2)COC(=O)[C@]3(O)CC + NC1CC1c1ccc(-c2cccc(O)c2)cc1	24.2
NS(=O)(=O)OCC1CC(n2ccc3c(NC4CCc5ccccc54)ncnc32)CC1O (centres undefined) + NC1CC1c1ccc(-c2cccc(O)c2)cc1	118
Nc1ccccc1NC(=O)c1ccc(CNC(=O)OCc2cccnc2)cc1 + NC1CCC(NC2CC2c2ccccc2)CC1	105

* * *

System: LG0703-F948-PDC complex spheroid viability
PROTOCOL: Anticancer human tumor LG0703-F948-PDC cell line growth inhibition;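 further: spheroids exposed to agents for seven days before readout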;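 on viability, T/C: 100% = DMSO vehicle control wells as normalization base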
MEASUREMENT PARAMETERS: second compound 0.316 µM; first compound 3.16 µM; stronger effect = lower value
TEST READOUT: viability, T/C

COMPOUND	READOUT VALUE
COc1ccc([C@@H](O)c2cc(-c3ncnc4cc(N5CCOCC5)ccc34)c(F)cc2Cl)nn1 + NC1CCC(NC2CC2c2ccccc2)CC1	18.7%
COc1ccc([C@@H](O)c2cc(-c3ncnc4cc(N5CCOCC5)ccc34)c(F)cc2Cl)nn1 + NC1CC1c1ccc(-c2cccc(O)c2)cc1	23%
CC1COCCN1c1cc(C2(S(C)(=N)=O)CC2)nc(-c2ccnc3[nH]ccc23)n1 (stereo not given) + NC1CCC(NC2CC2c2ccccc2)CC1	59.5%
CC1COCCN1c1cc(C2(S(C)(=N)=O)CC2)nc(-c2ccnc3[nH]ccc23)n1 (stereo not given) + NC1CC1c1ccc(-c2cccc(O)c2)cc1	63.8%
CC1(C)CCC(CN2CCN(c3ccc(C(=O)NS(=O)(=O)c4ccc(NCC5CCOCC5)c([N+](=O)[O-])c4)c(Oc4cnc5[nH]ccc5c4)c3)CC2)=C(c2ccc(Cl)cc2)C1 + NC1CC1c1ccc(-c2cccc(O)c2)cc1	35.6%
CC(C)c1c(-c2ccccc2)nc2c(C#N)c[nH]n2c1=O + NC1CC1c1ccc(-c2cccc(O)c2)cc1	104%
CC(C)c1c(-c2ccccc2)nc2c(C#N)c[nH]n2c1=O + NC1CCC(NC2CC2c2ccccc2)CC1	101%
O=C(c1cc(Cc2n[nH]c(=O)c3ccccc23)ccc1F)N1CCN(C(=O)C2CC2)CC1 + NC1CC1c1ccc(-c2cccc(O)c2)cc1	95.2%
CC1(C)CCC(CN2CCN(c3ccc(C(=O)NS(=O)(=O)c4ccc(NCC5CCOCC5)c([N+](=O)[O-])c4)c(Oc4cnc5[nH]ccc5c4)c3)CC2)=C(c2ccc(Cl)cc2)C1 + NC1CCC(NC2CC2c2ccccc2)CC1	24.9%
O=C(c1cc(Cc2n[nH]c(=O)c3ccccc23)ccc1F)N1CCN(C(=O)C2CC2)CC1 + NC1CCC(NC2CC2c2ccccc2)CC1	94.3%

* * *

viability, T/C: recorded values
Test system: LG0703-F948-PDC complex spheroid viability
PROTOCOL: Anticancer human tumor LG0703-F948-PDC cell line growth inhibition;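 further: spheroids exposed to agents for seven days before readout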;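 on viability, T/C: 100% = DMSO vehicle control wells as normalization base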
MEASUREMENT PARAMETERS: second compound 3.16 µM; first compound 0.003 µM; stronger effect = lower value

COMPOUND	viability, T/C
Nc1ccn(C2OC(CO)C(O)C2(F)F)c(=O)n1 (stereo unspecified) + NC1CC1c1ccc(-c2cccc(O)c2)cc1	80.6%
CCc1c2c(nc3ccc(O)cc13)-c1cc3c(c(=O)n1C2)COC(=O)[C@]3(O)CC + NC1CC1c1ccc(-c2cccc(O)c2)cc1	49.7%
Nc1ncn(C2CC(O)C(CO)S2)c(=O)n1 (stereo unspecified) + NC1CC1c1ccc(-c2cccc(O)c2)cc1	101%
Nc1ccn(C2OC(CO)C(O)C2(F)F)c(=O)n1 (stereo unspecified) + NC1CCC(NC2CC2c2ccccc2)CC1	65.8%
CCc1c2c(nc3ccc(O)cc13)-c1cc3c(c(=O)n1C2)COC(=O)[C@]3(O)CC + NC1CCC(NC2CC2c2ccccc2)CC1	52.5%
Nc1ncn(C2CC(O)C(CO)S2)c(=O)n1 (stereo unspecified) + NC1CCC(NC2CC2c2ccccc2)CC1	125%

* * *

System: LG0703-F948-PDC complex spheroid viability
PROTOCOL: Anticancer human tumor LG0703-F948-PDC cell line growth inhibition;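 further: spheroids exposed to agents for seven days before readout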
MEASUREMENT PARAMETERS: curve of compound
IC50: recorded values

COMPOUND	IC50
COc1cc(C2c3cc4c(cc3C(OC3OC5COC(C)OC5C(O)C3O)C3COC(=O)C23)OCO4)cc(OC)c1O (stereo not drawn)	> 3000 nM
CC(C)CC(NC(=O)C(Cc1ccccc1)NC(=O)c1cnccn1)B(O)O (stereo not drawn)	< 0.316 nM
Cn1ncnc1C1c2n[nH]c(=O)c3cc(F)cc(c23)NC1c1ccc(F)cc1 (stereo not drawn)	> 100 nM
Nc1ncn(C2CC(O)C(CO)O2)c(=O)n1 (stereo not drawn)	> 1000 nM
CCN(c1cc(-c2ccc(CN3CCOCC3)cc2)cc(C(=O)NCc2c(C)cc(C)[nH]c2=O)c1C)C1CCOCC1	> 3000 nM
CC(C)c1c(-c2ccccc2)nc2c(C#N)c[nH]n2c1=O	> 10000 nM
Nc1ncn(C2CC(O)C(CO)S2)c(=O)n1 (stereo not drawn)	> 300 nM
O=C(c1cc(Cc2n[nH]c(=O)c3ccccc23)ccc1F)N1CCN(C(=O)C2CC2)CC1	> 10000 nM

* * *

Test system: LG0703-F948-PDC complex spheroid viability
PROTOCOL: Anticancer human tumor LG0703-F948-PDC cell line growth inhibition;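 further: spheroids exposed to agents for seven days before readout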;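 on viability, T/C: 100% = DMSO vehicle control wells as normalization base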
MEASUREMENT PARAMETERS: second compound 3.16 µM; first compound 0.03 µM; stronger effect = lower value
# viability, T/C listing for each entry below

MOLECULE	TARGET DESC	viability, T/C (%)
CCc1c2c(nc3ccc(O)cc13)-c1cc3c(c(=O)n1C2)COC(=O)[C@]3(O)CC + NC1CC1c1ccc(-c2cccc(O)c2)cc1	LG0703-F948-PDC complex spheroid viability	12.2
CCN(c1cc(-c2ccc(CN3CCOCC3)cc2)cc(C(=O)NCc2c(C)cc(C)[nH]c2=O)c1C)C1CCOCC1 + NC1CCC(NC2CC2c2ccccc2)CC1	LG0703-F948-PDC complex spheroid viability	131
O=C(C=Cc1cccc(S(=O)(=O)Nc2ccccc2)c1)NO + NC1CC1c1ccc(-c2cccc(O)c2)cc1	LG0703-F948-PDC complex spheroid viability	80.8
Nc1ccn(C2OC(CO)C(O)C2(F)F)c(=O)n1 (centres undefined) + NC1CCC(NC2CC2c2ccccc2)CC1	LG0703-F948-PDC complex spheroid viability	51.5

* * *

The compounds listed here are annotated with their IC50.
System: LG0703-F948-PDC complex spheroid viability
PROTOCOL: Anticancer human tumor LG0703-F948-PDC cell line growth inhibition;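 further: spheroids exposed to agents for seven days before readout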
MEASUREMENT PARAMETERS: curve of first compound; second compound 0.1 µM
Text: Multicellular complex tumor spheroid response to LSD1 Inhibitor Iadademstat in combination with a variety of drugs and investigational agents in selected tumor cell lines The current study was undertaken to assess response to LSD1 inhibitors in combination with standard-of-care drugs and investigational agents in solid tumor complex spheroid models as well as in the K-562 leukemia. […] Compounds. […] If the clinical Cmax for an agent had not been determined, the highest concentration tested was 10 microM. […]

COMPOUND	OPERATOR SYMBOL	IC50 / nM
COc1cc(C2c3cc4c(cc3C(OC3OC5COC(C)OC5C(O)C3O)C3COC(=O)C23)OCO4)cc(OC)c1O (centres undefined) + NC1CCC(NC2CC2c2ccccc2)CC1	>	3000
Nc1ccn(C2OC(CO)C(O)C2(F)F)c(=O)n1 (centres undefined) + NC1CCC(NC2CC2c2ccccc2)CC1	=	3.35
Nc1ncn(C2CC(O)C(CO)O2)c(=O)n1 (centres undefined) + NC1CCC(NC2CC2c2ccccc2)CC1	>	1000
NS(=O)(=O)OCC1CC(n2ccc3c(NC4CCc5ccccc54)ncnc32)CC1O (centres undefined) + NC1CCC(NC2CC2c2ccccc2)CC1	=	546
